Numbers sourced from PubChem BioAssay (NCI).

Tested on: MOLT-4 leukemia
Test: NCI tumour cell line growth inhibition, 48 h; in the data active = GI50 below about 0.43 µM; inactive = the rest
Possible outcomes: T (active), F (inactive)

[
  {
    "compound": "CC(C)(O)c1coc(S(=O)(=O)/N=C(\\O)Nc2c3c(cc4c2CCC4)CCC3)c1",
    "assigned-class": "F"
  },
  {
    "compound": "CCC[CH2][Sn]([CH2]CCC)([O]C(=O)Cc1ccc(F)cc1)[O]C(=O)Cc1ccc(F)cc1",
    "assigned-class": "T"
  },
  {
    "compound": "COc1cccc2c1C(CO)N1C(C#N)C3CC(C(=O)O)C(C1C2)N3C (stereo not given)",
    "assigned-class": "T"
  },
  {
    "compound": "CC(=O)OCC1OC(OC2=C(CC=C(C)C)C(=O)c3ccccc3C2=O)C(OC(C)=O)C(OC(C)=O)C1OC(C)=O (stereo not given)",
    "assigned-class": "F"
  },
  {
    "compound": "COc1cc(/C=C/C(=O)c2cc(OC)c(OC)c(OC)c2)ccc1Oc1nc2c(c(=O)n(C)c(=O)n2C)n1C",
    "assigned-class": "F"
  }
]

====

Tested on: SF-539 CNS
Assay: NCI tumour cell line growth inhibition, 48 h
Quick reference: log10 of TGI of the listed items.
measured-endpoint: log10 of TGI (log10 of the value in nM)

[
  {
    "molecule": "c1cc(N2CCCC2)c2nc(-c3[nH]ncc3Nc3ncnc4[nH]ccc34)[nH]c2c1",
    "endpoint-result": 2.41
  },
  {
    "molecule": "Cn1nc(-c2cccs2)cc1/N=C(\\N)C(C)(C#N)Cc1ccccc1 (centres undefined)",
    "endpoint-result": 4.89
  },
  {
    "molecule": "Nc1nc(-c2cccc3ccccc23)cc2ccccc12",
    "endpoint-result": 3.23
  },
  {
    "molecule": "COC(=O)[C@@]12OC[C@]34[C@H]([C@@H](O)[C@@H]1O)[C@@]1(C)CC(=O)C(OC(C)=O)=C(C)[C@@H]1C[C@H]3OC(=O)[C@H](OC(=O)C=C(C)C)[C@@H]24",
    "endpoint-result": 3.26
  },
  {
    "molecule": "COC1C(CO)OC(n2c3ccccc3c3c4c(c5c6ccccc6[nH]c5c32)C(=O)NC4=O)C(OC(=O)C(N)CCCCN)C1O (centres undefined)",
    "endpoint-result": 2.14
  }
]

====

Each entry below carries its reported TGI.
Tested on: 786-0 renal
Test: NCI tumour cell line growth inhibition, 48 h

[
  {
    "compound": "O=c1[nH]c(=O)n(C2OC(CO)C(N(O)Cc3ccc(F)cc3)C2O)cc1Br (centres undefined)",
    "TGI": "> 100 µM"
  },
  {
    "compound": "CC1CC2=C(C(=O)O1)C(c1ccccc1)Nc1ccccc1N2 (centres undefined)",
    "TGI": "> 100 µM"
  },
  {
    "compound": "CCOC1CN(C)C(=Nc2cccc3ccccc23)S1 (centres undefined)",
    "TGI": "> 10 µM"
  },
  {
    "compound": "O=C1c2ccccc2-c2c1c1ccccc1c(=O)n2-c1cccnc1",
    "TGI": "44.7 µM"
  },
  {
    "compound": "CCOC(=O)[C@@H]1C2C(=C[C@H]3[C@H]1C(=O)N1CCCC[C@H]31)CCCN2C(=O)OCc1ccccc1 (some centres undefined)",
    "TGI": "> 100 µM"
  },
  {
    "compound": "O=C1/C(=C\\c2ccc(Br)cc2)CN(C(=O)c2ccccc2F)C/C1=C\\c1ccc(Br)cc1",
    "TGI": "3.13 µM"
  },
  {
    "compound": "O=[N+]([O-])c1ccc(N=Nc2c(O)ccc3cc(S(=O)(=O)O)cc(S(=O)(=O)O)c23)cc1",
    "TGI": "> 100 µM"
  },
  {
    "compound": "COc1ccc2c(c1)N(CCO)C1=C(C(=O)OC1)C2c1cc(OC)c(OC)c(OC)c1 (centres undefined)",
    "TGI": "> 50 µM"
  },
  {
    "compound": "NC(N)=NS(=O)(=O)c1ccc(NC(=O)c2cccc3c(NNc4ccc(C(=O)O)cc4)c4ccccc4nc23)cc1",
    "TGI": "> 100 µM"
  }
]

====

Test system: SK-MEL-28 melanoma
Experiment: NCI tumour cell line growth inhibition, 48 h
TGI values by entry

[
  {
    "molecule": "O=C1Nc2c(Cl)cc(Cl)cc2/C1=N/N=C/c1ccccc1O",
    "study-target": "SK-MEL-28 melanoma",
    "output-unit": "µM",
    "value-comparator": "=",
    "TGI": 40.3
  },
  {
    "molecule": "O=C(CC(=O)Nc1ccccc1Cl)NNC(c1cc(N=Nc2ccc(Br)cc2)ccc1O)P(O)O (centres undefined)",
    "study-target": "SK-MEL-28 melanoma",
    "output-unit": "µM",
    "value-comparator": ">",
    "TGI": 10
  },
  {
    "molecule": "CC#Cc1nc2ccccc2c(=O)[nH]1",
    "study-target": "SK-MEL-28 melanoma",
    "output-unit": "µM",
    "value-comparator": "=",
    "TGI": 33.9
  },
  {
    "molecule": "Cc1ccc(C(=O)Nc2ccc(S(=O)(=O)O)c3cc(S(=O)(=O)O)cc(S(=O)(=O)O)c23)cc1NC(=O)Nc1cc(C(=O)Nc2ccc(S(=O)(=O)O)c3cc(S(=O)(=O)O)cc(S(=O)(=O)O)c23)ccc1C",
    "study-target": "SK-MEL-28 melanoma",
    "output-unit": "µM",
    "value-comparator": ">",
    "TGI": 87.5
  }
]

====

compounds and their reported TGI
Tested on: CAKI-1 renal
Assay: NCI tumour cell line growth inhibition, 48 h

[
  {
    "compound": "Cc1ccnc(NS(=O)(=O)c2ccc(NC3=CC(=O)C(=O)c4ccccc43)cc2)n1",
    "value-comparator": ">",
    "TGI (µM)": 100
  },
  {
    "compound": "CC(=O)OCC1OC(OC2=C(CC=C(C)C)C(=O)c3ccccc3C2=O)C(OC(C)=O)C(OC(C)=O)C1OC(C)=O (stereo not given)",
    "value-comparator": "=",
    "TGI (µM)": 17.7
  },
  {
    "compound": "COc1cc(/C=N/NC(=O)c2ccc(NC(C)=O)cc2OC)ccc1O",
    "value-comparator": ">",
    "TGI (µM)": 100
  },
  {
    "compound": "C=CCNC(=O)/C=C\\C(=O)O",
    "value-comparator": ">",
    "TGI (µM)": 100
  },
  {
    "compound": "COc1cc(OC)cc(Oc2nc3cc(N)cc(N)c3nc2-c2ccccc2)c1",
    "value-comparator": "=",
    "TGI (µM)": 24.1
  }
]

====

Test system: DMS 273 small cell lung
Assay: NCI tumour cell line growth inhibition, 48 h
The following compounds are listed with their measured TGI values.
measured-endpoint: TGI

[
  {
    "compound": "O=c1c(O)c(O)c1=O.[NH2-].[NH2-].[NH2-].[NH2-].[NH2-].[Ru+5]",
    "study-target": "DMS 273 small cell lung",
    "endpoint-result": "> 100 µM"
  },
  {
    "compound": "Nc1nc(N)nc(-c2ccccc2NS(=O)(=O)c2ccc([N+](=O)[O-])cc2)n1",
    "study-target": "DMS 273 small cell lung",
    "endpoint-result": "> 100 µM"
  },
  {
    "compound": "CCCCCCCCCCCCCCCCP(=O)(OC)OC",
    "study-target": "DMS 273 small cell lung",
    "endpoint-result": "27.6 µM"
  },
  {
    "compound": "CCCCCCCCCCCCCCCCCCOP(=O)([O-])OC1CC[N+](C)(C)CC1",
    "study-target": "DMS 273 small cell lung",
    "endpoint-result": "14.9 µM"
  },
  {
    "compound": "CCCCC1=C(Br)C(=C(Br)Br)OC1=O",
    "study-target": "DMS 273 small cell lung",
    "endpoint-result": "8.01 µM"
  },
  {
    "compound": "Cc1ccnc(NS(=O)(=O)c2ccc(NC3=CC(=O)C(=O)c4ccccc43)cc2)n1",
    "study-target": "DMS 273 small cell lung",
    "endpoint-result": "> 100 µM"
  },
  {
    "compound": "C/C(=N\\N(C)C)C(CN1CCCCC1)C(c1ccccc1)c1c(O)c2ccccc2oc1=O (stereo not given)",
    "study-target": "DMS 273 small cell lung",
    "endpoint-result": "> 100 µM"
  },
  {
    "compound": "CC(C)(C)N=Cc1ccccc1[O-].CC(C)(C)N=Cc1ccccc1[O-].[Co+2]",
    "study-target": "DMS 273 small cell lung",
    "endpoint-result": "> 100 µM"
  },
  {
    "compound": "COc1ccccc1N=Nc1c(-c2ccccc2)nn(C(=O)CC(=O)Nc2ccccc2Cl)c1-c1ccccc1",
    "study-target": "DMS 273 small cell lung",
    "endpoint-result": "> 100 µM"
  },
  {
    "compound": "COc1c(Br)cc(Br)c(OC)c1-c1ccc[nH]1",
    "study-target": "DMS 273 small cell lung",
    "endpoint-result": "> 100 µM"
  }
]
